Molecular target: HER2 (A775_G776insYVMA) expressing Ba/F3 stable cell line (Homo sapiens, UniProt P04626, DUP772-775, cells depend on it)
Sequence (P04626 with tags, fused parts or gaps DUP772-775): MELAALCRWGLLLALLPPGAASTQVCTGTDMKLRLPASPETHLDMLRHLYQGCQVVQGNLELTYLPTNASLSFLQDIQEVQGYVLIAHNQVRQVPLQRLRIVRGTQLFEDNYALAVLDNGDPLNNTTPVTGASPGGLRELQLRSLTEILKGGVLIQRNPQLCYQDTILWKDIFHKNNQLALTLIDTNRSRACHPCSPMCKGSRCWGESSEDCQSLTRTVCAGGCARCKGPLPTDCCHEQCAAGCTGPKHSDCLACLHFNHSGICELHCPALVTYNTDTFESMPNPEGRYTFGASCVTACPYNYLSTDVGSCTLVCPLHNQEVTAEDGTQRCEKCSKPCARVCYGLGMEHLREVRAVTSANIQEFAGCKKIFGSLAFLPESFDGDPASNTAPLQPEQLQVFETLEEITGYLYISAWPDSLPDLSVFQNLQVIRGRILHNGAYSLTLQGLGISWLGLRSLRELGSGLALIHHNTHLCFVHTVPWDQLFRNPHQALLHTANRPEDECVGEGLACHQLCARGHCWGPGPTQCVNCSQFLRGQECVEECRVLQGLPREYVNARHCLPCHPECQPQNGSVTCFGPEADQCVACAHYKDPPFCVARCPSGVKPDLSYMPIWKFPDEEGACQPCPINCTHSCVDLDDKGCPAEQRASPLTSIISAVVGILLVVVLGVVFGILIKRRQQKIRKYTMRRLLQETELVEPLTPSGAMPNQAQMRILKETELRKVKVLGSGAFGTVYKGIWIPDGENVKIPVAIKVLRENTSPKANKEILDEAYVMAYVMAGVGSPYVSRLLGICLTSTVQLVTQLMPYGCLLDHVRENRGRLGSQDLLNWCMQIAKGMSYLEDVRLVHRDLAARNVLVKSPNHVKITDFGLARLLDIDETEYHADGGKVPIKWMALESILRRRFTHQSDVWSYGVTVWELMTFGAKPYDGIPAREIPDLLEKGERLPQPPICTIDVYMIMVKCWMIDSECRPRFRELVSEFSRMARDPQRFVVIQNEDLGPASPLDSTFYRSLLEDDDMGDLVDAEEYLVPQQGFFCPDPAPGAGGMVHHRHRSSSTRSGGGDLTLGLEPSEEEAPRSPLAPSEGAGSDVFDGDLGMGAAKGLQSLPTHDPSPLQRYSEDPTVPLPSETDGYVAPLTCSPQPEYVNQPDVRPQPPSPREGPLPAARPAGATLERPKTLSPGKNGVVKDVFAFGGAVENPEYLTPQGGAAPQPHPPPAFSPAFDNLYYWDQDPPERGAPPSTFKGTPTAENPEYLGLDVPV
Experiment: Cellular proliferation (Alamar Blue) assay, HER2 A775_G776insYVMA Ba/F3
Assay type: cell-based
Details: 72 hr, read-out: YVMA IC50
Structures can show the parent of a compound that is named as a salt.
endpoint-label: GI50 (nM)

C=CC(=O)Nc1ccc(F)c(Nc2nc(Nc3cnn(CCO)c3)ncc2-c2ccc(C(F)(F)F)cc2)c1 :: 266
C=CC(=O)Nc1cccc(Oc2nc(Nc3cnn(C)c3)ncc2-c2ccc(C(F)F)nc2)c1 :: 226
C=CC(=O)Nc1ccc(F)c(Nc2nc(Nc3cnn(C)c3)ncc2-c2ccnc(OC(F)F)c2)c1 :: 226

1 = C=CC(=O)Nc1ccc(F)c(Nc2nc(Nc3cnn(C)c3)ncc2-c2ccc(F)nc2)c1
2 = C=CC(=O)Nc1ccc(F)c(Nc2nc(Nc3cn(C)nc3C)ncc2-c2ccc(C(F)(F)F)cc2)c1 [Compound 135, trifluoroacetate]
3 = C=CC(=O)Nc1cccc(Nc2nc(Nc3cnn(C)c3)nnc2Cl)c1
[Q] Write the entries in order, lowest recorded GI50 first. Note for the reader: the ranking is given by listing the labels in the order requested.
[A] 1, 2, 3

###

Molecular target: EGFR (H773insNPH) expressing Ba/F3 stable cell line (Homo sapiens, UniProt P00533, DUP771-773, cells depend on it)
Sequence (P00533 with tags, fused parts or gaps DUP771-773): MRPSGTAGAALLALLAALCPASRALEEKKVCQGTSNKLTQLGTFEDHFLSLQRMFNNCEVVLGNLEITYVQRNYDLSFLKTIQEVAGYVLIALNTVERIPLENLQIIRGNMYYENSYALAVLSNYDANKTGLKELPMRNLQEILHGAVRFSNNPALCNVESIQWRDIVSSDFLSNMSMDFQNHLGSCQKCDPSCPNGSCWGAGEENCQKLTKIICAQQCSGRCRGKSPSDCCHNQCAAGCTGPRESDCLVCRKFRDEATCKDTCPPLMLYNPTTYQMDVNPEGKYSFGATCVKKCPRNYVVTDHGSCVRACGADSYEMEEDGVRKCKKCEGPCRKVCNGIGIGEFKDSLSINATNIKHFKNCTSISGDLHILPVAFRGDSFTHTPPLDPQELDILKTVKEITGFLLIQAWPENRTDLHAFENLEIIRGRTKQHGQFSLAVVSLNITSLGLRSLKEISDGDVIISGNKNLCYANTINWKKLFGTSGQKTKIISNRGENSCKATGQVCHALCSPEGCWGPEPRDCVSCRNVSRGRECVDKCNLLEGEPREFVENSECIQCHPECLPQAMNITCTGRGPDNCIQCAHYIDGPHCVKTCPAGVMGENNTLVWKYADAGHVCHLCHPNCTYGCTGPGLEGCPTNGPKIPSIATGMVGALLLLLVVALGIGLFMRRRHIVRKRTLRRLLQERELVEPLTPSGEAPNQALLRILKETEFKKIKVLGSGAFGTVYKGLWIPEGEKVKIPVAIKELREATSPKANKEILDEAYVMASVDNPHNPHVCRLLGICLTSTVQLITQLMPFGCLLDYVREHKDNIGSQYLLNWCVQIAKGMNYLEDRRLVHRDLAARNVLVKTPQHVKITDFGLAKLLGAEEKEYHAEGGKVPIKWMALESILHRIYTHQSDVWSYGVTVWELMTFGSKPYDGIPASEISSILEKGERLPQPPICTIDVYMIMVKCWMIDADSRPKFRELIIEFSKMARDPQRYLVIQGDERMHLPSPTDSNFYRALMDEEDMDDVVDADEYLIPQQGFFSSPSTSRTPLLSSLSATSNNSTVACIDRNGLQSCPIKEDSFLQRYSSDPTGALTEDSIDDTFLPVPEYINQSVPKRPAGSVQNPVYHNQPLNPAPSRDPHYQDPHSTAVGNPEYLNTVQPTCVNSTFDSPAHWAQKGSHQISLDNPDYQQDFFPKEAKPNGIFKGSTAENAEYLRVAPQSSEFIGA
Test: Cellular proliferation (Alamar Blue) assay, EGFR H773insNPH Ba/F3
Format: cell-based
Settings: 72 hr, read-out: NPH IC50
endpoint-label: GI50 (nM)

C=CC(=O)Nc1ccc(F)c(Nc2nc(Nc3cnn(C)c3)ncc2-c2cncc(C)c2)c1 [Compound 67] :: 41

I = C=CC(=O)Nc1cccc(Oc2nc(Nc3cnn(C)c3)ncc2-c2ccc(C(F)F)nc2)c1 [Compound 187]
II = C=CC(=O)Nc1ccc(F)c(Nc2nc(Nc3cnn(C)c3)ncc2-c2cncs2)c1 [Compound 230]
[Q] Pick one: I or II . Which has the bigger GI50 number? Reply briefly: the label of your chosen item.
[A] I

###

Target: EGFR (H773insNPH) expressing Ba/F3 stable cell line (Homo sapiens, UniProt P00533, DUP771-773, cells depend on it)
Assay: Cellular proliferation (Alamar Blue) assay, EGFR H773insNPH Ba/F3
Assay type: cell-based
Settings: 72 hr, read-out: NPH IC50
Structures can show the parent of a compound that is named as a salt.
endpoint-label: GI50 (nM)

C=CC(=O)Nc1cccc(Nc2nc(Nc3cnn(C)c3)ncc2-c2cncc(C(F)F)c2)c1 [Compound 144, trifluoroacetate] :: 101
C=CC(=O)Nc1ccc(F)c(Nc2nc(Nc3cnn(C)c3)ncc2-c2cccc(F)c2)c1 :: 49

P = C=CC(=O)Nc1ccc(F)c(Nc2nc(Nc3cnn(C)c3)ncc2-c2cncc(OC)c2)c1
Q = C=CC(=O)Nc1ccc(F)c(Nc2nc(Nc3cnn(C)c3)ncc2-c2ccccc2F)c1
[Q] Given P and Q , report the one with the higher recorded GI50. Your answer should be the label of the entry you select.
[A] Q

###

Target: EGFR(D770_N771insSVD) expressing Ba/F3 stable cell line (Homo sapiens, UniProt P00533, DUP768-770, cells depend on it)
Sequence (P00533 with tags, fused parts or gaps DUP768-770): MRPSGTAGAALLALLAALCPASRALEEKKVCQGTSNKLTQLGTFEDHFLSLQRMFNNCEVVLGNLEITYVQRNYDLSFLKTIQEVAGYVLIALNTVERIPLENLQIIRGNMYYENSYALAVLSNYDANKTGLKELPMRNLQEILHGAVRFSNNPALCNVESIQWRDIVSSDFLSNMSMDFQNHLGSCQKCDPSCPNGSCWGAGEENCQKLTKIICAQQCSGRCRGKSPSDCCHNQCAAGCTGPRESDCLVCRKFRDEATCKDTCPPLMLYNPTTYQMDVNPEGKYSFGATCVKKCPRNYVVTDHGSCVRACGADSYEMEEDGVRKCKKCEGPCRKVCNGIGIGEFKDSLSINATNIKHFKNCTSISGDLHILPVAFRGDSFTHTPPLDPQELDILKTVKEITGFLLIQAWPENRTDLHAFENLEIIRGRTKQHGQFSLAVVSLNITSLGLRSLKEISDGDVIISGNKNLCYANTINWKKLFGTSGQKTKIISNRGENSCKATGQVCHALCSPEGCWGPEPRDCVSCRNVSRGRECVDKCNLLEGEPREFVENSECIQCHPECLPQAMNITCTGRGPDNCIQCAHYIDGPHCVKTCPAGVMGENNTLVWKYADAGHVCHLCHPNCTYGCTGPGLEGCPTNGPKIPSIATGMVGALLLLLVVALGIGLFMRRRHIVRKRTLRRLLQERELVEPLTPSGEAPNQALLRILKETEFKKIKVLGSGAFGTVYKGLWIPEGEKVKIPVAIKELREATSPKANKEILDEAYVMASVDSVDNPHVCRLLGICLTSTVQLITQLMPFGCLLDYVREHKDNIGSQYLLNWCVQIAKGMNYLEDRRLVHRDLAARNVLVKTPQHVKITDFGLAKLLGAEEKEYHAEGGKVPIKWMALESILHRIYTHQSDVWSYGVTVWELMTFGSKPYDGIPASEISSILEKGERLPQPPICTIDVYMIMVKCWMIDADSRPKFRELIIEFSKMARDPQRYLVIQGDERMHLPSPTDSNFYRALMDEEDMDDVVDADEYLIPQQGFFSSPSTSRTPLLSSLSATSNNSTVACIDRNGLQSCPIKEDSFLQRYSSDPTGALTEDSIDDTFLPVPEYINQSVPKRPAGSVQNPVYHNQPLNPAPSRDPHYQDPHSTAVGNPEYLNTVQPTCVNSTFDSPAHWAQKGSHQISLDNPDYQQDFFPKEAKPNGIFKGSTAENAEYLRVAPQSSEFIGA
Assay: Cellular proliferation (Alamar Blue) assay, EGFR D770_N771insSVD Ba/F3
Assay type: cell-based
Conditions: 72 hr, read-out: D770 IC50
Counter-ions that a name gives are not always drawn.
endpoint-label: GI50 (nM)

C=CC(=O)Nc1ccc(F)c(Nc2nc(Nc3cnn(C)c3)ncc2-c2ccc3ccccc3c2)c1 [Compound 149, trifluoroacetate] :: 308
C=CC(=O)Nc1ccc(F)c(Oc2nc(Nc3cnn(C)c3)ncc2-c2ccc(C(F)(F)F)cc2)c1 :: 173
C=CC(=O)Nc1ccc(F)c(Nc2nc(Nc3cnn(C)c3)ncc2-c2cccc(OC(F)F)c2)c1 [Compound 143, trifluoroacetate] :: 276
C=CC(=O)Nc1ccc(F)c(Nc2nc(Nc3cnn(C)c3)ncc2C2=CCN(C)C2)c1 :: 793
C=CC(=O)Nc1cccc(Oc2nc(Nc3cnn(CCN(C)C)c3)ncc2-c2ccc(C(F)(F)F)cc2)c1 :: 619
C=CC(=O)Nc1ccc(F)c(Nc2nc(Nc3cnn(C)c3)ncc2-c2ccc3[nH]ccc3c2)c1 :: 546
C=CC(=O)Nc1ccc(F)c(Nc2nc(Nc3cnn(C)c3)ncc2-c2cncc(N(C)C)c2)c1 [Compound 116, trifluoroacetate] :: 108
C=CC(=O)Nc1ccc(F)c(Nc2nc(Nc3cnn(CCO)c3)ncc2-c2ccc(C(F)(F)F)cc2)c1 :: 84

I = CN(C)C/C=C/C(=O)Nc1ccc(F)c(Nc2nc(Nc3cnn(C)c3)ncc2-c2ccc(CC(F)(F)F)cc2)c1
II = C=CC(=O)Nc1cccc(Nc2nc(Nc3cnn(C)c3)ncc2NC(=O)c2ccccc2)c1
III = C=CC(=O)Nc1cccc(Nc2nc(Nc3cnn(C)c3)ncc2-c2ccc(F)nc2)c1
IV = C=CC(=O)Nc1ccc(F)c(Nc2nc(Nc3cn(C)nc3Cl)ncc2-c2ccc(Br)cc2)c1
[Q] Order the records, beginning with the lowest GI50 and ending with the highest. # format: label list in the order the request specifies
[A] III, IV, I, II
(III: 36 nM, IV: 93 nM, I: 193 nM, II: 3130 nM)

I = C=CC(=O)Nc1ccc(F)c(Nc2nc(Nc3cnn(C)c3)ncc2-c2ccc(C3CC3)cc2)c1 [Compound 128, trifluoroacetate]
II = C=CC(=O)Nc1ccc(F)c(-c2nc(Nc3cnn(C)c3)ncc2Cl)c1
III = CN(C)C/C=C/C(=O)Nc1ccc(F)c(Nc2nc(Nc3cnn(C)c3)ncc2-c2ccc(Br)cc2)c1
[Q] Put the items in order so that reported GI50 rises from first to last. List each label, following the requested order.
[A] I, III, II
(I: 101 nM, III: 1520 nM, II: 9550 nM)
